Values from patent US20130281399A1

- ASSAY_SYSTEM: Brd4 bromodomain 1 (Homo sapiens, UniProt O60885)
- Construct: made in house; host or cells: E. coli BL21(DE3)
- ASSAY_TEXT: Inhibition of binding of tetra-acetylated histone H4 to Brd4 bromodomain 1 (TR-FRET)
- COND: His-tagged Brd4 bromodomain 1 200 nM, tetra-acetylated histone H4 peptide 25-50 nM, 2 hours room temperature
READOUT_LABEL: FRET activity (<50 uM)

Solved cases below.
| COMPOUND | FRET activity (<50 uM) |
| --- | --- |
| COc1cc(OC)c2c(=O)[nH]c(-c3ccc(N4C[C@@H](C)N(C(C)C)[C@@H](C)C4)cc3)nc2c1 [Example 42] | Active |
| COc1cc(OC)c2c(=O)[nH]c(-c3ccc(Nc4ccc(C)cc4)cc3)nc2c1 [Example 61] | Inactive |
| Cc1cc(-c2nc3nc(OC(C)C)cc(OC(C)C)c3c(=O)[nH]2)cc(C)c1OCCN1CCCC1 [Example 91] | Inactive |
| COc1cc(OC)c2c(=O)[nH]c(-c3cc(C)c(OCCN4C(=O)NC(c5ccccc5)C4=O)c(C)c3)nc2c1 (centres unmarked) [Example 79] | Active |
| COc1cc(OC)c2c(=O)[nH]c(-c3ccc(N4CCC(NCC5CC5)C4)cc3)nc2c1 (centres unmarked) [Example 4] | Active |
| Cc1cc(C)c2c(=O)[nH]c(-c3cc(C)c(OCCN4CCCC4)c(C)c3)nc2c1 [Example 89] | Active |

Query: What does the data say about its FRET activity (<50 uM)? Entry: COc1cc(OCCOC(C)C)c2c(=O)[nH]c(-c3cc(C)nc(C)c3)nc2c1 [Example 6]
Reply: Active

Query: What does the data say about its FRET activity (<50 uM)? Entry: COc1cc(OC)c2c(=O)[nH]c(-c3ccc(CN4CCN(C(C)C)CC4)cc3)nc2c1 [Example 93]
Reply: Active
